tested on: Escherichia coli TOP10; test: shrunken log2 fold change of peptide-encoding DNA abundance (4.5 h post-induction vs induction); higher = less antimicrobial activity (less host growth inhibition); details: time post-induction: 4.5 h; library: site-saturation at positions 5, 18, 19, 20
Kindly state shrunken log2 fold change for each of the entries shown.
Provide a numeric answer; units are not to be included.

In one line, give reported shrunken log2 fold change of the entry `RRIRWRPPRLPRPRPRPCGPPRP` .
0.183

In one line, give reported shrunken log2 fold change of the entry `RRIRTRPPRLPRPRPRPANFPRP` .
-0.234

In one line, give reported shrunken log2 fold change of the entry `RRIRMRPPRLPRPRPRPIWRPRP` .
0.128

In one line, give reported shrunken log2 fold change of the entry `RRIRDRPPRLPRPRPRPCQFPRP` .
0.0215

In one line, give reported shrunken log2 fold change of the entry `RRIRHRPPRLPRPRPRPWCAPRP` .
-0.145

In one line, give reported shrunken log2 fold change of the entry `RRIRTRPPRLPRPRPRPMIEPRP` .
-0.244

In one line, give reported shrunken log2 fold change of the entry `RRIRARPPRLPRPRPRPMQRPRP` .
0.383

In one line, give reported shrunken log2 fold change of the entry `RRIRARPPRLPRPRPRPSTAPRP` .
0.482

In one line, give reported shrunken log2 fold change of the entry `RRIRYRPPRLPRPRPRPLTAPRP` .
-0.492

In one line, give reported shrunken log2 fold change of the entry `RRIRCRPPRLPRPRPRPMVSPRP` .
0.0237

In one line, give reported shrunken log2 fold change of the entry `RRIRCRPPRLPRPRPRPVGQPRP` .
0.0533

In one line, give reported shrunken log2 fold change of the entry `RRIRYRPPRLPRPRPRPTEEPRP` .
-0.2

In one line, give reported shrunken log2 fold change of the entry `RRIRKRPPRLPRPRPRPWQIPRP` .
0.141

In one line, give reported shrunken log2 fold change of the entry `RRIRMRPPRLPRPRPRPGSTPRP` .
0.292

In one line, give reported shrunken log2 fold change of the entry `RRIRLRPPRLPRPRPRPEHFPRP` .
0.0339

###

system: Escherichia coli TOP10; test: shrunken log2 fold change of peptide-encoding DNA abundance (4.5 h post-induction vs induction); higher = less antimicrobial activity (less host growth inhibition); conditions: time post-induction: 4.5 h; library: site-saturation at positions 5, 18, 19, 20;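 also: peptides expressed intracellularly from a pBAD plasmid library in pooled LB shake-flask culture, induced with 0.3% L-arabinose, DNA abundance read by NGS, three biological replicates, DESeq2 with apeglm shrinkage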
Entries are grouped by shrunken log2 fold change into these classes: low group: < -0.09; middle group: ≥ -0.09 and < 0.06; high group: ≥ 0.06

State the band of `RRIRNRPPRLPRPRPRPGDNPRP`
middle group

State the band of `RRIRYRPPRLPRPRPRPNTYPRP`
low group

State the band of `RRIRERPPRLPRPRPRPPAMPRP`
low group

State the band of `RRIRQRPPRLPRPRPRPTIVPRP`
low group

State the band of `RRIRDRPPRLPRPRPRPYRQPRP`
high group

State the band of `RRIRCRPPRLPRPRPRPARRPRP`
high group

State the band of `RRIRIRPPRLPRPRPRPVRQPRP`
middle group

State the band of `RRIRGRPPRLPRPRPRPNPYPRP`
low group

State the band of `RRIRLRPPRLPRPRPRPERMPRP`
middle group

State the band of `RRIRNRPPRLPRPRPRPGCSPRP`
high group

State the band of `RRIRYRPPRLPRPRPRPMWRPRP`
low group

State the band of `RRIRNRPPRLPRPRPRPQPSPRP`
high group

State the band of `RRIRPRPPRLPRPRPRPRSGPRP`
high group

State the band of `RRIRNRPPRLPRPRPRPHHHPRP`
low group

State the band of `RRIRIRPPRLPRPRPRPWQPPRP`
middle group

State the band of `RRIRHRPPRLPRPRPRPTTQPRP`
middle group

State the band of `RRIRNRPPRLPRPRPRPFVIPRP`
low group

State the band of `RRIRERPPRLPRPRPRPESMPRP`
low group

State the band of `RRIRMRPPRLPRPRPRPQIKPRP`
middle group

State the band of `RRIRWRPPRLPRPRPRPPGFPRP`
high group

State the band of `RRIRTRPPRLPRPRPRPLGWPRP`
high group

State the band of `RRIRVRPPRLPRPRPRPKAFPRP`
middle group

State the band of `RRIRNRPPRLPRPRPRPTGKPRP`
middle group

State the band of `RRIRDRPPRLPRPRPRPPNTPRP`
high group

State the band of `RRIRHRPPRLPRPRPRPPPVPRP`
high group

State the band of `RRIRDRPPRLPRPRPRPCFGPRP`
low group

State the band of `RRIRVRPPRLPRPRPRPHHNPRP`
high group

State the band of `RRIRRRPPRLPRPRPRPQMGPRP`
high group

State the band of `RRIRYRPPRLPRPRPRPWLAPRP`
middle group

State the band of `RRIRERPPRLPRPRPRPNNMPRP`
low group

State the band of `RRIRLRPPRLPRPRPRPWPFPRP`
middle group
